System: Rattus norvegicus
experimental-details: Gastrointestinal toxicity in Wistar albino rat assessed as incidence of stomach ulceration at 0.029 mmol/kg, po
Type: organism-based
experimental-setup: in vivo

compound: COc1ccc(/C=N/NC(=O)c2nc3c(c(=O)[nH]2)C2CCCN2C(=O)N3c2ccccc2)cc1O (centres undefined)
Activity: Non-toxic
//
compound: Cc1ccc(-c2cc(C(F)(F)F)nn2-c2ccc(S(N)(=O)=O)cc2)cc1
Activity: Toxic
//
compound: Cc1c(NC(=O)c2nc3c(c(=O)[nH]2)C2CCCN2C(=O)N3c2ccccc2)c(=O)n(-c2ccccc2)n1C (centres undefined)
Activity: Non-toxic
//
compound: CCOC(=O)c1nc2c(c(=O)[nH]1)C1CCCN1C(=O)N2c1ccccc1 (centres undefined)
Activity: Non-toxic
//
compound: O=C(O)c1nc2c(c(=O)[nH]1)C1CCCN1C(=O)N2c1ccccc1 (centres undefined)
Activity: Toxic
//
compound: CCOC(=O)C/C(C)=N/NC(=O)c1nc2c(c(=O)[nH]1)C1CCCN1C(=O)N2c1ccccc1 (centres undefined)
Activity: Non-toxic
//
compound: Cc1cc(=O)n(C(=O)c2nc3c(c(=O)[nH]2)C2CCCN2C(=O)N3c2ccccc2)[nH]1 (centres undefined)
Activity: Non-toxic
//
compound: COc1ccc(/C=N/NC(=O)c2nc3c(c(=O)[nH]2)C2CCCN2C(=O)N3c2ccccc2)cc1 (centres undefined)
Activity: Non-toxic
//
compound: C/C(=N\NC(=O)c1nc2c(c(=O)[nH]1)C1CCCN1C(=O)N2c1ccccc1)c1ccc(Cl)cc1 (centres undefined)
Activity: Toxic
//
compound: O=C(O)Cc1nc2c(c(=O)[nH]1)C1CCCN1C(=O)N2c1ccccc1 (centres undefined)
Activity: Toxic
//
compound: O=C(N/N=C/c1ccccc1O)c1nc2c(c(=O)[nH]1)C1CCCN1C(=O)N2c1ccccc1 (centres undefined)
Activity: Toxic
//
compound: O=C(N/N=C/c1ccc(Cl)cc1)c1nc2c(c(=O)[nH]1)C1CCCN1C(=O)N2c1ccccc1 (centres undefined)
Activity: Non-toxic
//
compound: COc1ccc2c(c1)c(CC(=O)O)c(C)n2C(=O)c1ccc(Cl)cc1
Activity: Toxic
//
compound: O=C1CC(O)=NN1C(=O)c1nc2c(c(=O)[nH]1)C1CCCN1C(=O)N2c1ccccc1 (centres undefined)
Activity: Non-toxic
//
compound: NNC(=O)c1nc2c(c(=O)[nH]1)C1CCCN1C(=O)N2c1ccccc1 (centres undefined)
Activity: Toxic
//
compound: Cc1cc(-c2ccccc2)nn1C(=O)c1nc2c(c(=O)[nH]1)C1CCCN1C(=O)N2c1ccccc1 (centres undefined)
Activity: Non-toxic
//
compound: Nc1cc(=O)[nH]n1C(=O)c1nc2c(c(=O)[nH]1)C1CCCN1C(=O)N2c1ccccc1 (centres undefined)
Activity: Non-toxic
//
compound: CCO/C=N/NC(=O)c1nc2c(c(=O)[nH]1)C1CCCN1C(=O)N2c1ccccc1 (centres undefined)
Activity: Non-toxic
//
compound: CC(C)=NNC(=O)c1nc2c(c(=O)[nH]1)C1CCCN1C(=O)N2c1ccccc1 (centres undefined)
Activity: Non-toxic

###

Examples of compounds with documented inhibition in vivo at 29 µmol/kg follow.
Tested on: Rattus norvegicus
experimental-details: Antiinflammatory activity in Wistar albino rat assessed as inhibition of carrageenan-induced paw edema at 0.029 mmol/kg, po dosed 1 hr before carrageenan challenge measured 3 hrs post carrageenan-induced inflammation

compound: Cc1cc(=O)n(C(=O)c2nc3c(c(=O)[nH]2)C2CCCN2C(=O)N3c2ccccc2)[nH]1 (stereo unspecified)
measured-target: Rattus norvegicus
inhibition in vivo at 29 µmol/kg [%]: 57

compound: Cc1c(NC(=O)c2nc3c(c(=O)[nH]2)C2CCCN2C(=O)N3c2ccccc2)c(=O)n(-c2ccccc2)n1C (stereo unspecified)
measured-target: Rattus norvegicus
inhibition in vivo at 29 µmol/kg [%]: 78

compound: CCOC(=O)C/C(C)=N/NC(=O)c1nc2c(c(=O)[nH]1)C1CCCN1C(=O)N2c1ccccc1 (stereo unspecified)
measured-target: Rattus norvegicus
inhibition in vivo at 29 µmol/kg [%]: 47

compound: O=C(N/N=C/c1ccc(Cl)cc1)c1nc2c(c(=O)[nH]1)C1CCCN1C(=O)N2c1ccccc1 (stereo unspecified)
measured-target: Rattus norvegicus
inhibition in vivo at 29 µmol/kg [%]: 44

compound: COc1ccc2c(c1)c(CC(=O)O)c(C)n2C(=O)c1ccc(Cl)cc1
measured-target: Rattus norvegicus
inhibition in vivo at 29 µmol/kg [%]: 47

compound: Cc1cc(C)n(C(=O)c2nc3c(c(=O)[nH]2)C2CCCN2C(=O)N3c2ccccc2)n1 (stereo unspecified)
measured-target: Rattus norvegicus
inhibition in vivo at 29 µmol/kg [%]: 65
